# study_target: full length human BTLA expressed on cells (human, UniProt Q7Z6A9 31-289); also: test concentration or dose not given here
# protocol_summary: cell-based or functional assay
Quick reference: T cell reporter (NFκB signaling) of the listed items.
Write the figure, then the unit, nothing else.

Study these solved cases before continuing.
binder	T cell reporter (NFκB signaling)
14D4 (antibody, IgG1, V domains shown, mIgG1) VH: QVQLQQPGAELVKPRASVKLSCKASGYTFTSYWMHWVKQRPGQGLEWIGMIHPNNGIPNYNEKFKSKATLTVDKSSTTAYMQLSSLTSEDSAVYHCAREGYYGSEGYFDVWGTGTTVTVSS VL: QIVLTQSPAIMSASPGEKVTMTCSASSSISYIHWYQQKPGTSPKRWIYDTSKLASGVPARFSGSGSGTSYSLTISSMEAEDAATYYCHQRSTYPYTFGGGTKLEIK	16 % inhibition
26B1 (antibody, IgG1, V domains shown, mIgG1) VH: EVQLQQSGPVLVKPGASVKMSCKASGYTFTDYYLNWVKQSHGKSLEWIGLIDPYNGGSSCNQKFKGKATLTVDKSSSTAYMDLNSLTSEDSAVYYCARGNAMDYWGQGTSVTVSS VL: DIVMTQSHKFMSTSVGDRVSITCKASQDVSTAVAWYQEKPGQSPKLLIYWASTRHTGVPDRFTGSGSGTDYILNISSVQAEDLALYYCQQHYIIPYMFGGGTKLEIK	29 % inhibition
15C6 (antibody, IgG1, V domains shown, mIgG1) VH: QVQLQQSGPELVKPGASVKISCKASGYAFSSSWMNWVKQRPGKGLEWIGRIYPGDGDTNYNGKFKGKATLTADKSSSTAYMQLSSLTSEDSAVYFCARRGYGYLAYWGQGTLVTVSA VL: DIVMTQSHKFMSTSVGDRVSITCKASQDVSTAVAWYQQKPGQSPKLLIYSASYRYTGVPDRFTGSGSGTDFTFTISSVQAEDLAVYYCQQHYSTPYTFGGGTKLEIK	9 % inhibition

Return T cell reporter (NFκB signaling) (reported value) for this binder: 3A9 (antibody, IgG1, V domains shown, mIgG1) VH: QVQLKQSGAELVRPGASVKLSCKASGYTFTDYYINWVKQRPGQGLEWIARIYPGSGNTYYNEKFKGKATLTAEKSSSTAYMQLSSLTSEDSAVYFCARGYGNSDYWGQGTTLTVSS VL: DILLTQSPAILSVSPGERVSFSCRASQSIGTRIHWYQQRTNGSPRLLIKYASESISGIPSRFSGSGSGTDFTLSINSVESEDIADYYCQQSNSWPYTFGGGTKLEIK
27 % inhibition

Recorded values, source patent US20230235058A1.
